Please respond with reported Ki for every item in the list.
target: ENPP-1 ECD (Homo sapiens (Human)); assay: Assay 2: inhibition of ENPP1 hydrolysis of 2′,3′-cGAMP (AMP-Glo, […] enzyme); conditions: Assay 2 (KI), inhibition of ENPP1 hydrolysis of 2′,3′-cGAMP; no unit in Table 18 (Table 17 legend for this assay uses nM)
Sequence (P22413 98-925): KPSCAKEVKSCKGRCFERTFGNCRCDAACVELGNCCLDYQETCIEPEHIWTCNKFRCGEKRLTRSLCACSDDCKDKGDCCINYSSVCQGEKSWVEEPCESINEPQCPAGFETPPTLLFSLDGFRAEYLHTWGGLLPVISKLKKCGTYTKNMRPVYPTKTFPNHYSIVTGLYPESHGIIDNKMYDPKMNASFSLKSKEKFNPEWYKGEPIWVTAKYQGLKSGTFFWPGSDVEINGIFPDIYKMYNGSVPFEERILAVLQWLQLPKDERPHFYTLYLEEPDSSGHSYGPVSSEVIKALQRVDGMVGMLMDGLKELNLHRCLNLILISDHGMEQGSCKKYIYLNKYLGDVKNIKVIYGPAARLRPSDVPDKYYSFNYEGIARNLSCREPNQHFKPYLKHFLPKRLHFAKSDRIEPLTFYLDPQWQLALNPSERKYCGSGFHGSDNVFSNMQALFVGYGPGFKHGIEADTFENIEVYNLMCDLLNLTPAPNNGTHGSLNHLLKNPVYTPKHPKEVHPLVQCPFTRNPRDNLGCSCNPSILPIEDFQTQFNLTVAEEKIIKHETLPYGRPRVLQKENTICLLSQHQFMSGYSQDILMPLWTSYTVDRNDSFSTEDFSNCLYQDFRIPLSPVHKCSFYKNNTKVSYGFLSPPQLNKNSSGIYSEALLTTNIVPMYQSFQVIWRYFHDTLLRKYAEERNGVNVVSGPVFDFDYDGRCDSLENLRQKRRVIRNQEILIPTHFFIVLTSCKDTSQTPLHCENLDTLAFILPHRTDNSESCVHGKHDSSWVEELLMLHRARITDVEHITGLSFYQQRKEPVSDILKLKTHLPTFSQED
Write the value in nM as a bare number.

INPUT: Can you share its Ki? I mean this compound: COc1cc2ncnc(N3CCC4(CC3)CCN(S(C)(=N)=O)C4)c2cc1OC (stereo not shown)
OUTPUT: 0.014

INPUT: Entry COc1cc2ncnc(N3CCC4(CC3)CCN(S(=N)(=O)CC(C)(C)O)C4)c2cc1OC (stereo not shown) please
OUTPUT: 0.069

INPUT: Entry COc1cccc2c(N3CC4(CCN(S(C)(=N)=O)C4)C3)ncnc12 (stereo not shown) please
OUTPUT: 0.29

INPUT: Entry COc1cccc2c(N3CCC(CS(C)(=N)=O)CC3)c(C#N)c(C)nc12 (stereo not shown) please
OUTPUT: 0.69

INPUT: Entry COc1cc2nccc(-c3cccc(CCS(C)(=N)=O)c3)c2cc1OC (stereo not shown) please
OUTPUT: 28

INPUT: Entry COc1cccc2c(N3CCC(CCS(C)(=N)=O)CC3)ncnc12 (stereo not shown) please
OUTPUT: 18

INPUT: Entry COc1cccc2c(N3CC[C@@H](CS(C)(=N)=O)C3)ncnc12 (stereo partly shown) please
OUTPUT: 0.81

INPUT: Entry COc1cc2nncc(N3CC4(CC(CS(C)(=N)=O)C4)C3)c2cc1OC (stereo not shown) please
OUTPUT: 0.074

INPUT: Entry COc1cc2nccc(N3CCC(CCS(C)(=N)=O)CC3)c2cc1F (stereo not shown) please
OUTPUT: 1.3

INPUT: Entry COc1ccc2c(Oc3ccc(S(C)(=N)=O)c(F)c3)ccnc2c1 (stereo not shown) please
OUTPUT: 2.8

INPUT: Entry COc1cccc2c(N3CCC(CS(=N)(=O)C4CC4)CC3)ncnc12 (stereo not shown) please
OUTPUT: 0.19

INPUT: Entry COc1cc2nncc(N3CCC4(CC3)CCN(S(C)(=N)=O)C4)c2cc1OC (stereo not shown) please
OUTPUT: 0.022

INPUT: Entry COc1cc2ncnc(N3CCC4(CC3)CCN(S(C)(=N)=O)CC4)c2cc1OC (stereo not shown) please
OUTPUT: 17

INPUT: Entry COc1cc2nccc(N3CCC4(CC3)CCN(S(=N)(=O)C3CC3)C4)c2cc1F (stereo not shown) please
OUTPUT: 0.022

INPUT: Entry COc1cc2nncc(Oc3ccc(S(C)(=N)=O)cc3)c2cc1OC (stereo not shown) please
OUTPUT: 5

INPUT: Entry COc1ccc2c(N3CCC(CCS(C)(=N)=O)CC3)ncnc2c1 (stereo not shown) please
OUTPUT: 2.4

INPUT: Entry COc1cccc2c(N3CCC(CS(C)(=N)=O)CC3)ncnc12 (stereo not shown) please
OUTPUT: 0.36

INPUT: Entry COc1cc2nccc(OCc3ccc(S(C)(=N)=O)cc3)c2cc1F (stereo not shown) please
OUTPUT: 0.32

INPUT: Entry COc1ccc2c(OCc3ccc(S(C)(=N)=O)cc3Br)ccnc2c1 (stereo not shown) please
OUTPUT: 38

INPUT: Entry COc1cccc2c(N3CCC(CS(C)(=N)=O)CC3)cnnc12 (stereo not shown) please
OUTPUT: 3.1

INPUT: Entry COc1cc2ncnc(-c3ccc(CCS(C)(=N)=O)cc3)c2cc1OC (stereo not shown) please
OUTPUT: 12

INPUT: Entry COc1ccc2c(OCc3cc(F)cc(S(C)(=N)=O)c3)ccnc2c1 (stereo not shown) please
OUTPUT: 0.03

INPUT: Entry COc1cc2ncc(C#N)c(N3CCC(CCS(C)(=N)=O)CC3)c2cc1F (stereo not shown) please
OUTPUT: 0.49

INPUT: Entry COc1ccc2c(N3CCC(CCS(C)(=N)=O)CC3)c(C#N)cnc2c1 (stereo not shown) please
OUTPUT: 1

INPUT: Entry COc1ccc2c(Oc3ccc(S(C)(=N)=O)cc3F)ccnc2c1 (stereo not shown) please
OUTPUT: 8.6

INPUT: Entry COc1ccc2c(Oc3ccc(CS(C)(=N)=O)cc3)ccnc2c1 (stereo not shown) please
OUTPUT: 220

INPUT: Entry COc1ccc2c(OCc3cccc(S(C)(=N)=O)c3)ccnc2c1 (stereo not shown) please
OUTPUT: 0.12

INPUT: Entry COc1cc2nccc(Oc3ccc(S(C)(=N)=O)cc3)c2cc1F (stereo not shown) please
OUTPUT: 0.27

INPUT: Entry CCS(=N)(=O)N1CCC2(CCN(c3ncnc4cc(OC)c(F)cc34)CC2)C1 (stereo not shown) please
OUTPUT: 0.12

INPUT: Entry COc1ccc2c(Oc3ccc(S(=N)(=O)C4CN(C(C)=O)C4)cc3)ccnc2c1 (stereo not shown) please
OUTPUT: 3.1

---

target: ENPP1 on MDA-MB-231 cells (Homo sapiens (Human)); experiment: Assay 3: inhibition of ENPP1 hydrolysis of AMP p-nitrophenyl ester on MDA-MB-231 cells; conditions: read-out: Assay 3 (KI, app); apparent KI from IC50 via Cheng/Prusoff; pNP-AMP […], MDA-MB-231 cells, pH 7.4, 37° C., 3 h; unit inferred
Sequence (P22413 whole entry): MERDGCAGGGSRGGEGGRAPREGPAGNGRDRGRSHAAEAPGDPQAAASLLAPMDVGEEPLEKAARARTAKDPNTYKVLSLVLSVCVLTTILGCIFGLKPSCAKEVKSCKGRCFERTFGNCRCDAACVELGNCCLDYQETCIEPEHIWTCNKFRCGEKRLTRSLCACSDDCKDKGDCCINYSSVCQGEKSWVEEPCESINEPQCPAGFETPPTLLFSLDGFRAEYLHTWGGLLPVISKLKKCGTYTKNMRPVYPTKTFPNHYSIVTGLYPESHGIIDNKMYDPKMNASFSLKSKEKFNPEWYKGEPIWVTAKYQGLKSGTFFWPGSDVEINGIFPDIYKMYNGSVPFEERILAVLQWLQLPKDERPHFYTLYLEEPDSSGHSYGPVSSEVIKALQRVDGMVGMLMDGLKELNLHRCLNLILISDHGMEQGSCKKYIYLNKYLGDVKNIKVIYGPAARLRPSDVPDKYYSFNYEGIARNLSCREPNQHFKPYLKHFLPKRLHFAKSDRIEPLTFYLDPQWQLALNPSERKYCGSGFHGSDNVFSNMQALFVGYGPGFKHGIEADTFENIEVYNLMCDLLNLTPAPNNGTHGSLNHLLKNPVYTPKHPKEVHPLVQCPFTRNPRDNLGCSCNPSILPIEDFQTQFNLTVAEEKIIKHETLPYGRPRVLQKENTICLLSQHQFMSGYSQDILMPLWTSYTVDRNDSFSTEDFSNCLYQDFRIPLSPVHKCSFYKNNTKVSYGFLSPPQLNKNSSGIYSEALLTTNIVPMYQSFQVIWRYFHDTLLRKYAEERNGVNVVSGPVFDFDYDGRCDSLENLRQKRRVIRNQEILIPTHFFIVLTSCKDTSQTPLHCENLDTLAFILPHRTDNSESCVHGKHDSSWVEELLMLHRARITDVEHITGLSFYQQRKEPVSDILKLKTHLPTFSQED
PROPERTY_MEASURED: pKi
The scale used: pKi is minus the common logarithm of the concentration in molar units.

INPUT: Can you share its pKi? I mean this molecule: COc1cccc2c(N3CCC(C[S@@](C)(=N)=O)CC3)ncnc12 [Compound 146a]
OUTPUT: 8.35

INPUT: Entry COc1cc2ncnc(N3CC4(CC(C[S@](C)(=N)=O)C4)C3)c2cc1OC [Compound 237b] please
OUTPUT: 9.77

INPUT: Entry COc1cc2nccc(-c3ccc4c(c3)CN([S@@](C)(=N)=O)CC4)c2cc1OC [Compound 161a] please
OUTPUT: 8.28

INPUT: Entry COc1cc2nncc(N3CCC4(CC3)CCN([S@](C)(=N)=O)C4)c2cc1OC [Compound 211a] please
OUTPUT: 8.66

---

molecular target: UniProt:P22413; assay: Assay 2: inhibition of ENPP1 hydrolysis of 2′,3′-cGAMP (AMP-Glo, […] enzyme); details: Assay 2 (KI), ENPP1 hydrolysis of 2′,3′-cGAMP, AMP-Glo, […] ENPP-1, 24 μM cGAMP
pKi: −log10 of the molar value.
PROPERTY_MEASURED: pKi

INPUT: Can you share its pKi? I mean this compound: COc1cc2ncc(C#N)c(Oc3ccc(S(C)(=N)=O)cc3)c2cc1F (stereo not drawn) [Compound 44]
OUTPUT: > 8.52

INPUT: Entry COc1ccc2c(Oc3ccc(S(C)(=N)=O)c(F)c3)ccnc2c1 (stereo not drawn) [Compound 10] please
OUTPUT: > 8.52

INPUT: Entry COc1cc2nccc(Oc3ccc(S(C)(=N)=O)c(F)c3)c2cc1OC (stereo not drawn) [Compound 115] please
OUTPUT: 6.52 to 8.52

---

target: ENPP-1 ECD (Homo sapiens (Human)); assay: Assay 2: inhibition of ENPP1 hydrolysis of 2′,3′-cGAMP (AMP-Glo, […] enzyme); details: Assay 2 (KI), ENPP1 hydrolysis of 2′,3′-cGAMP, AMP-Glo, […] ENPP-1, 24 μM cGAMP
pKi: −log10 of the molar value.
PROPERTY_MEASURED: pKi

INPUT: Can you share its pKi? I mean this compound: COc1ccc2c(Oc3ccc(S(C)(=N)=O)nc3)ccnc2c1 (stereo not drawn)
OUTPUT: 6.52 to 8.52

INPUT: Entry COc1ccc2c(Oc3ccc(S(=N)(=O)C4CC4)cc3)ccnc2c1 (stereo not drawn) please
OUTPUT: > 8.52

INPUT: Entry COc1cccc2c(N3CCC(CCS(C)(=N)=O)CC3)c(C#N)cnc12 (stereo not drawn) please
OUTPUT: 6.52 to 8.52

INPUT: Entry COc1cc2nncc(Oc3ccc(S(C)(=N)=O)cc3)c2cc1OC (stereo not drawn) please
OUTPUT: 6.52 to 8.52

INPUT: Entry COc1cc2nccc(OCc3ccc(S(C)(=N)=O)cc3)c2cc1OC (stereo not drawn) please
OUTPUT: 6.52 to 8.52

INPUT: Entry COc1ccc2c(Oc3ccc(S(C)(=N)=O)cc3)ccnc2c1 (stereo not drawn) please
OUTPUT: > 8.52

INPUT: Entry COc1ccc2c(Oc3cccc(S(C)(=N)=O)c3)ccnc2c1 (stereo not drawn) please
OUTPUT: 6.52 to 8.52

INPUT: Entry COc1ccc2c(N3CCC(CCS(C)(=N)=O)CC3)c(C#N)cnc2c1 (stereo not drawn) please
OUTPUT: > 8.52

INPUT: Entry COc1cc2ncc(C#N)c(N3CCC(CCS(C)(=N)=O)CC3)c2cc1F (stereo not drawn) please
OUTPUT: > 8.52

---

target: ENPP-1 ECD (Homo sapiens (Human)); assay: Assay 2: inhibition of ENPP1 hydrolysis of 2′,3′-cGAMP (AMP-Glo, […] enzyme); details: Assay 2 (KI), inhibition of ENPP1 hydrolysis of 2′,3′-cGAMP; no unit in Table 18 (Table 17 legend for this assay uses nM)
PROPERTY_MEASURED: Ki (nM)
Write the value in nM as a bare number.

INPUT: Can you share its Ki? I mean this compound: COc1cc2nccc(N3CCC4(CC3)CCN(S(C)(=N)=O)C4)c2cc1C#N (stereo not shown)
OUTPUT: 1.2

INPUT: Entry COc1ccc2c(OCc3ccc(S(C)(=N)=O)cc3)ccnc2c1 (stereo not shown) please
OUTPUT: 0.49

INPUT: Entry COc1cc2ncc(F)c(N3CCC4(CC3)CCN(S(C)(=N)=O)C4)c2cc1OC (stereo not shown) please
OUTPUT: 0.018

INPUT: Entry COc1ccc2c(Oc3ccc(S(=N)(=O)CC4CC4)cc3)ccnc2c1 (stereo not shown) please
OUTPUT: 1.5
